target: Crimean-Congo hemorrhagic fever virus L protein viral ovarian tumor (vOTU) protease domain; experiment: CCHFV vOTU protease inhibitor potency, dose response, biochemical, fluorescence, Pep-AMC substrate (AID 720578); settings: recombinant CCHFV vOTU, Pep-AMC fluorescence cleavage
Activity calls are given as the source filed them. No rule for the calls is given here.
reportedEndpoint: IC50

                                    compound    result
 0  CN(C1=C(NC(=O)c2ccccc2)C(=O)c2ccccc2C1=O)C1CCS(=O)(=O)C1 (configuration not stated)   2.43 µM
 1  COc1ccccc1NC(=O)COC(=O)c1ccc([N+](=O)[O-])s1   9.94 µM
 2  Cc1ccc(NC2=C(N3CCOCC3)C(=O)c3ccccc3C2=O)cc1   4.31 µM
 3  Cc1ccc(Cl)cc1NC1=C/C(=N\S(=O)(=O)c2cccs2)c2ccccc2C1=O  0.787 µM
 4          CCOCCCNC1=C(Cl)C(=O)c2ccccc2C1=O  inactive
 5  CC(=O)c1ccc(NC2=C(N3CCOCC3)C(=O)c3ccccc3C2=O)cc1  inactive
 6  CC[C@H](CO)Oc1cc(NCc2cccc(N)c2)c2ncn(C(C)C)c2c1   6.52 µM
 7  Cc1ccc(NC2=C/C(=N/S(=O)(=O)c3cccs3)c3ccccc3C2=O)cc1  0.405 µM
 8  Cc1coc2c(O)cc3c(c12)OC1(N2CCCCC2)C(=O)NCCCC31 (configuration not stated)  inactive
 9                 Oc1ccccc1CNc1cccc2cccnc12   9.96 µM
10               O=C1C(=O)c2ccccc2-c2ccccc21    2.4 µM
11  O=S(=O)(N=C1C=CC(=NS(=O)(=O)c2ccccc2)c2ccccc21)c1ccccc1  inactive
12  CC(=O)N(C1=C(Cl)C(=O)c2ccccc2C1=O)C1CCCCC1   3.54 µM
13  COc1cc2c(cc1O)[C@@H]1Cc3ccc(OC)c(O)c3CN1CC2   7.49 µM
14           O=C1C=C(NCc2ccccc2)c2ccccc2C1=O   6.23 µM
15        Cc1cc(NC2=CC(=O)C(=O)c3ccccc32)no1    5.6 µM
16    CCOC(=O)N=Nc1c2ccccc2c2nc3no[nH]c3nc12   2.35 µM
17  CCc1cc[n+](C2=C([O-])c3ccccc3C(=O)/C2=N\S(=O)(=O)c2cccs2)cc1    4.4 µM
18  O=C(/C=C/c1ccc(O)cc1)c1ccc(NC2=C(N3CCCCC3)C(=O)c3ccccc3C2=O)cc1   3.35 µM
19  Cc1ccc(N2C(=O)[C@@H]3[C@H](C2=O)C2c4ccccc4C=CN2[C@@H]3C(=O)c2ccco2)cc1 (some centres not stated)   4.21 µM
20  CC(=O)N(C1=C(N)C(=O)c2ccccc2C1=O)c1ccccc1   8.38 µM
21         Oc1c(C=Nc2cccc3nsnc23)ccc2ccccc12  inactive

###

molecular target: Crimean-Congo hemorrhagic fever virus L protein viral ovarian tumor (vOTU) protease domain; assay: CCHFV vOTU protease inhibitor potency, dose response, biochemical, fluorescence, Pep-AMC substrate (AID 720578); details: recombinant CCHFV vOTU, Pep-AMC fluorescence cleavage
Activity calls are given as the source filed them. The rule behind the calls is not given here.
Labels: active, inactive

>>> print(df.to_string())
                                    compound     class
 0                     O=C1C(=NO)CCc2ccccc21    active
 1  COc1cc2c(cc1OC)-c1c(OC)c(OC)cc3c1C(C2)N(C)CC3 (configuration not stated)  inactive
 2              CN1CCC/C1=C/C=C1\SC(=S)NC1=O  inactive
 3  Cc1cccc(NC(=O)c2sc3nc4c(c(-c5cccs5)c3c2N)CN(C)CC4)c1  inactive
 4  CCOC(=O)C1CCN(C(=O)c2c(C)oc3c2C(=O)c2ccccc2C3=O)CC1  inactive
 5          O=C1C(Cl)=C(NCCCO)C(=O)c2ccccc21  inactive
 6  CCOC(=O)N1CCN(C2=C(NS(=O)(=O)c3ccc(C)cc3)C(=O)c3ccccc3C2=O)CC1  inactive
 7       O=C1NNC(c2ccccc2)=N/C1=C\c1ccccc1Cl  inactive
 8      Cc1nc2c(o1)C(=O)c1ccccc1C2=Nc1ccccc1    active
 9            CN(C)c1ccc2nc3ccc(=O)cc-3sc2c1  inactive
10        Cc1oc2c(c1C(=O)O)C(=O)c1ccccc1C2=O    active
11  O=S(=O)(Nc1cc(Sc2ncn[nH]2)c(O)c2ccccc12)c1ccccc1    active
12  CCCCCCCCN1C(=O)[C@@H](CC(=O)NCCCOCCCC)C[C@@]2(C(=O)OC)C1=C[C@H](C(C)C)O[C@@H]2C1CC1  inactive
13  CC(NC1=CC(=O)c2cccnc2C1=O)C(O)c1ccccc1 (configuration not stated)    active
14  O=C(O)CCCNc1cc(N2CCN(C(=O)c3ccco3)CC2)c2noc3c2c1C(=O)c1ccccc1-3    active
15  O=C(c1ccco1)[C@@H]1[C@@H]2C(=O)N(c3ccc(Br)cc3)C(=O)[C@@H]2C2c3ccccc3C=CN21 (some centres not stated)    active
16  O=C(O)c1ccc(S(=O)(=O)/N=C2\C=C(Nc3ccccc3F)C(=O)c3ccccc32)cc1    active
17  O=C(O)CSc1cc(NS(=O)(=O)c2ccc(Cl)cc2)c2ccccc2c1O    active
18  O=C1Nc2ccc([N+](=O)[O-])cc2C1=Nc1cccc(CO)c1    active
19          COc1ccc(NC(=S)Nc2ccc3nsnc3c2)cc1    active
20  CN(C)S(=O)(=O)c1cccc(NC(=S)Nc2cccc3cnccc23)c1  inactive
21     CC(=O)c1ccc(NC(=S)Nc2cccc3cnccc23)cc1    active

###

target: Crimean-Congo hemorrhagic fever virus L protein viral ovarian tumor (vOTU) protease domain; experiment: CCHFV vOTU protease inhibitor potency, dose response, biochemical, fluorescence, Pep-AMC substrate (AID 720578); conditions: recombinant CCHFV vOTU, Pep-AMC fluorescence cleavage
Calls of active or inactive are those of the source. How the calls were made is not given here.
Labels: active, inactive

compound	class
O=C(O)c1cc(O)c2c(c1)[C@H]([C@H]1c3cc(C(=O)O)cc(O)c3C(=O)c3c(O[C@@H]4O[C@H](CO)[C@@H](O)[C@H](O)[C@H]4O)cccc31)c1cccc(OC3O[C@H](CO)[C@@H](O)[C@H](O)[C@H]3O)c1C2=O (some centres undefined)	active
O=C(COC(=O)c1ccc([N+](=O)[O-])s1)Nc1ccccc1	inactive
O=C(O)c1cccc(NC2=C(N3CCOCC3)C(=O)c3ccccc3C2=O)c1	inactive
O=C(COC(=O)c1ccc([N+](=O)[O-])s1)Nc1ncc(C(F)(F)F)cc1Cl	active
O=C(COC(=O)c1ccc([N+](=O)[O-])s1)Nc1ccc(Cl)cn1	active
COc1cc(NC(C)CCCN)c2ncccc2c1 (centres undefined)	inactive
O=C1Cc2ccccc2C(=O)N1CCc1ccccc1	active
Cn1nc(-c2ccccn2)nc2c(=O)n(C)c(=O)nc1-2	active
CC(=O)N(/N=C1\Sc2ccccc2C1=O)c1ccccc1C	inactive

###

molecular target: Crimean-Congo hemorrhagic fever virus L protein viral ovarian tumor (vOTU) protease domain; assay: CCHFV vOTU protease inhibitor potency, dose response, biochemical, fluorescence, Pep-AMC substrate (AID 720578); conditions: recombinant CCHFV vOTU, Pep-AMC fluorescence cleavage
Active and inactive are the calls of the source. How the calls were made is not given here.
Labels: Y = active, N = inactive

>>> print(df.to_string())
                              smilesnotation  class
 0                CN(C)CCCNc1cc(O)c2ncccc2c1      Y
 1  CC(=O)[C@H]1[C@@H]2C(=O)N(c3cccc(Cl)c3)C(=O)[C@@H]2[C@H]2c3ccccc3C=CN21      N
 2      C=CCN1C=CC(=C/C=C(/C#N)C(=O)OCC)C=C1      N
 3     COc1ccc(Cc2nccc3cc(OC)c(OC)cc23)cc1OC      N
 4           CN=c1sc2c(n1C)C(=O)c1ccccc1C2=O      Y
 5  O=C(O)c1cccc(NC2=C(n3nnc4ccccc43)C(=O)c3ccccc3C2=O)c1      Y
 6      O=C1C=C(Nc2ccccc2C(=O)O)c2ccccc2C1=O      Y
 7     O=C(NC(=S)Nc1ccccc1N1CCCC1)c1ccccc1Br      N
 8             O=C1C=C(N2CCCCC2)c2ccccc2C1=O      Y
 9       CCOC(=O)/C=C(\C)Sc1cc(O)c2ccccc2c1O      Y
10  NS(=O)(=O)c1ccc(NC(=O)COC(=O)c2ccc([N+](=O)[O-])s2)cc1      Y

###

molecular target: Crimean-Congo hemorrhagic fever virus L protein viral ovarian tumor (vOTU) protease domain; experiment: CCHFV vOTU protease inhibitor potency, dose response, biochemical, fluorescence, Pep-AMC substrate (AID 720578); conditions: recombinant CCHFV vOTU, Pep-AMC fluorescence cleavage
The source made the active and inactive calls. The rule behind the calls is not given here.
Labels: yes for active, no for inactive

>>> df
                                    compound  class
 0  CC(=O)N(C1=C(Cl)C(=O)c2ccccc2C1=O)c1ccc(C(=O)O)cc1    yes
 1        O=C(NC(=S)Nc1ccccc1N1CCCC1)c1cccs1     no
 2  COc1ccc(C(C[N+](=O)[O-])c2c(C)[nH]n(-c3ccccc3)c2=O)cc1 (stereo unspecified)     no
 3           CC(C)NC1=C(Cl)C(=O)c2ccccc2C1=O     no
 4     Cc1ccc2c(c1C)-c1c(ccc(C)c1C)C(=O)C2=O    yes
 5  O=S(=O)(c1ccc2nc(-c3ccco3)c(-c3ccco3)nc2c1)N1CCOCC1     no
 6         CCCCCCCCCCCCCCCC[n+]1cccc2ccccc21     no
 7         O=C1C(SCCO)=C(SCCO)C(=O)c2ccccc21    yes
 8  O=C(COC(=O)c1ccc([N+](=O)[O-])s1)Nc1ccc(F)cc1    yes
 9   CC(C)=CCC1=C(OCC(=O)O)C(=O)c2ccccc2C1=O    yes
10     COc1cc(CCNC2=CC(=O)c3ncccc3C2=O)ccc1O    yes

This collection of values is drawn from PubChem BioAssay AID720578.
